- experiment_description: Assessment of pH solubility of crystalline salts in buffers
- Type: physicochemical
- measurement_context: pH 2.0
Where a name gives a salt, the structure may show the parent alone.
reported_endpoint: Solubility (mg/mL)

The examples below pair each entry with its known result.
INSERT INTO measurements (molecule, reported_endpoint, assay_result) VALUES
  ('CC[C@@H](c1ccccc1)N1Cc2cc3c(cc2C[C@H]1C(=O)N[C@@H](Cc1ccc(-c2ccnc(C)c2C)cc1)C(=O)O)OC[C@H](c1ccc(OCc2ccc(Cl)c(Cl)c2)cc1)O3 [Crystal form B of hydrochloride]', 'Solubility', 0.017),
  ('CC[C@@H](c1ccccc1)N1Cc2cc3c(cc2C[C@H]1C(=O)N[C@@H](Cc1ccc(-c2ccnc(C)c2C)cc1)C(=O)O)OC[C@H](c1ccc(OCc2ccc(Cl)c(Cl)c2)cc1)O3 [Crystal form C of hydrobromide]', 'Solubility', 0.016);

P = CC[C@@H](c1ccccc1)N1Cc2cc3c(cc2C[C@H]1C(=O)N[C@@H](Cc1ccc(-c2ccnc(C)c2C)cc1)C(=O)O)OC[C@H](c1ccc(OCc2ccc(Cl)c(Cl)c2)cc1)O3 [Crystal form C of p-toluenesulfonate]
Q = CC[C@@H](c1ccccc1)N1Cc2cc3c(cc2C[C@H]1C(=O)N[C@@H](Cc1ccc(-c2ccnc(C)c2C)cc1)C(=O)O)OC[C@H](c1ccc(OCc2ccc(Cl)c(Cl)c2)cc1)O3 [Crystal form C of sulfate]
Problem: Response body: label of entry with the larger Solubility; valid values P , Q . # reply format: chosen label
Result: P
